Item-by-item account of Log P[a]
test: LogP by HPLC on reversed phase columns (EEC directive 79/831 Annex V.A8); type: physicochemical
REPORTED_METRIC: Log P[a]

[[record]]
compound = "COC(=O)C1(c2nc(C3=NOC(c4ccccc4OS(C)(=O)=O)C3)cs2)CCN(C(=O)Nc2cc(C(F)F)nn2C)CC1 (stereo not shown)"
reported_metric = "Log P[a]"
recorded_number = 2.64

[[record]]
compound = "CC(C)(C)OC(=O)C1(C#N)CCN(C(=O)Nc2cccc(C#N)c2)CC1"
reported_metric = "Log P[a]"
recorded_number = 2.88

[[record]]
compound = "COC(=O)C1(c2nc(C3=NOC(c4ccccc4)C3)cs2)CCN(C(=O)Cn2nc(C(F)F)cc2C(F)F)CC1 (stereo not shown)"
reported_metric = "Log P[a]"
recorded_number = 3.48

[[record]]
compound = "COC(=O)C1(c2nc(C3=NOC(c4ccccc4OS(C)(=O)=O)C3)cs2)CCN(C(=O)Nc2cc(C)ccc2C)CC1 (stereo not shown)"
reported_metric = "Log P[a]"
recorded_number = 3.29

[[record]]
compound = "C=CCOC(=O)C1(C(N)=S)CCN(C(=O)Cn2nc(C(F)F)cc2C(F)F)CC1"
reported_metric = "Log P[a]"
recorded_number = 2.42

[[record]]
compound = "CC(C)=CCN(C)C(=O)C1(C#N)CCN(C(=O)Nc2ccc(Cl)cc2)CC1"
reported_metric = "Log P[a]"
recorded_number = 3.03

[[record]]
compound = "COC(=O)C1(c2nc(C3=NOC(c4c(Cl)cccc4OS(C)(=O)=O)C3)cs2)CCN(C(=O)Cn2nc(C)cc2C(F)F)CC1 (stereo not shown)"
reported_metric = "Log P[a]"
recorded_number = 3.15


* * *

assay: LogP by HPLC on reversed phase columns (EEC directive 79/831 Annex V.A8); assay type: physicochemical; conditions: Table 4, compounds of formula (II); LC-UV, acidic range, 0.1% formic acid in water and acetonitrile as eluent; read-out: Log P[a]
Here, each record is paired with measured chromatographic logP data.
REPORTED_METRIC: chromatographic logP

[[record]]
cpd_smiles = "COC(=O)C1(C(N)=S)CCN(C(=O)Nc2cc(C(F)F)nn2C)CC1"
reported_metric = "chromatographic logP"
recorded_number = 1.33

[[record]]
cpd_smiles = "COC(=O)C1(C(N)=S)CCN(C(=O)Cn2nc(C(F)F)cc2C(F)F)CC1"
reported_metric = "chromatographic logP"
recorded_number = 1.98


* * *

experiment: LogP by HPLC on reversed phase columns (EEC directive 79/831 Annex V.A8); assay type: physicochemical; settings: pH 2.7; synthesis intermediates in preparation examples; read-out: LogP (pH 2.7)
Catalogue of molecules with associated chromatographic logP
REPORTED_METRIC: chromatographic logP

[[record]]
molecule = "CC(=O)C1=NOC(c2c(Cl)cccc2OS(C)(=O)=O)C1 (stereo not shown)"
recorded_number = 2.46

[[record]]
molecule = "CS(=O)(=O)Oc1cccc(Cl)c1C1CC(C(=O)CBr)=NO1 (stereo not shown)"
recorded_number = 2.93

[[record]]
molecule = "Cn1nc(C(F)F)cc1NC(=O)Oc1ccccc1"
recorded_number = 2.18

[[record]]
molecule = "CS(=O)(=O)Oc1ccccc1C1CC(C(=O)CCl)=NO1 (stereo not shown)"
recorded_number = 2.54

